Target: vimentin (human, UniProt P08670 2-466)
Sequence (P08670 2-466): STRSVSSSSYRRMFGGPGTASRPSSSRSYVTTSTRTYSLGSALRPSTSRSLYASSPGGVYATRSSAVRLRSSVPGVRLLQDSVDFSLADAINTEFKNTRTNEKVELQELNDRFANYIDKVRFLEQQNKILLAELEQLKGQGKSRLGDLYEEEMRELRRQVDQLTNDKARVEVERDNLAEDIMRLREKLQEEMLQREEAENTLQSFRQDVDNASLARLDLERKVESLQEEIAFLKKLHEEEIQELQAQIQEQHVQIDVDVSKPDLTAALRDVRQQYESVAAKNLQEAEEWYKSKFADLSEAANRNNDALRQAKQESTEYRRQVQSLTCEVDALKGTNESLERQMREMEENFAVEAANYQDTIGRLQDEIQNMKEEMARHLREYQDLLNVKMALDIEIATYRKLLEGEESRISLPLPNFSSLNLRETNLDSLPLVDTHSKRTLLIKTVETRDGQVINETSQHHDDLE
Assay: filter binding; Filter binding: 20 mM Tris, 150 mM NaCl, pH 8.0, 2 h, room temperature, 10 uL; flow cytometry: fixed IGROV cells, 22 C, 1 h; microscopy: 37 C, 1 h
Details: label: 5'-biotin; predicted stem-loop
measurement label: Kd (nM)
Reply numerically in nM, unit not repeated.

[[record]]
binder = "ACCTCTTCAAGAACATCCCTGTCACGGATCCTCTAGAGCA (XNA, monothioated phosphates 3' of adenines (shown in red, positions not in text)) [V3M2]"
measurement_label = "Kd"
unit_of_measure = "nM"
measured_result = 18.9


Field: next binder
Ask | Return reported Kd; argument: TAGACCCAGCTGGTCCGGAAAATAAGATGTCACGGATCCTC (XNA, monothioated phosphates 3' of adenines (shown in red, positions not in text)) [V5M2]
Reply | 47.4
